Assay: Plasma protein binding, equilibrium dialysis, rat
Format: in vitro ADME
Conditions: plasma (10% plasma, extrapolated to 100% plasma), Sprague-Dawley plasma, 18 hours at 37° C.
Method: Protein binding is measured using the equilibrium dialysis technique. Compound is added to 10% plasma giving a concentration of 10 μM and dialysed with isotonic buffer for 18 hours at 37° C. The plasma and buffer solutions are analysed using generic LC UV/MS and the first apparent binding constant for the compound derived. The binding constant is then used to determine the % free in 100% plasma The percentage of plasma bound/unbound fraction preparation was calculated as follows [formula] […]
Measurement kind: fraction unbound at 18 h, 10 µM

(a) CCc1c(C)nn2c(N)c(C#N)c(NCCc3ccn(C4(CO)CC4)n3)nc12
(b) CCc1c(C)nn2c(N)c(C#N)c(NCCc3ccn(C4COCC4CO)n3)nc12 (single isomer, unassigned; (-)) [Example 122b]
(c) Cc1cccc(CCNc2nc3c(C)c(C)nn3c(N)c2C#N)n1
Sort these molecules on fraction unbound at 18 h, 10 µM so the largest reading comes first. State the ranking by listing the labels in the requested order. a, b, c
(a: 0.249, b: 0.139, c: 0.0964)

Origin of the recorded values: patent US12577247B2
